Overview of reported pIC50 across a group of compounds:
Target: EGFR (Homo sapiens)
Sequence (P00533 25-1210): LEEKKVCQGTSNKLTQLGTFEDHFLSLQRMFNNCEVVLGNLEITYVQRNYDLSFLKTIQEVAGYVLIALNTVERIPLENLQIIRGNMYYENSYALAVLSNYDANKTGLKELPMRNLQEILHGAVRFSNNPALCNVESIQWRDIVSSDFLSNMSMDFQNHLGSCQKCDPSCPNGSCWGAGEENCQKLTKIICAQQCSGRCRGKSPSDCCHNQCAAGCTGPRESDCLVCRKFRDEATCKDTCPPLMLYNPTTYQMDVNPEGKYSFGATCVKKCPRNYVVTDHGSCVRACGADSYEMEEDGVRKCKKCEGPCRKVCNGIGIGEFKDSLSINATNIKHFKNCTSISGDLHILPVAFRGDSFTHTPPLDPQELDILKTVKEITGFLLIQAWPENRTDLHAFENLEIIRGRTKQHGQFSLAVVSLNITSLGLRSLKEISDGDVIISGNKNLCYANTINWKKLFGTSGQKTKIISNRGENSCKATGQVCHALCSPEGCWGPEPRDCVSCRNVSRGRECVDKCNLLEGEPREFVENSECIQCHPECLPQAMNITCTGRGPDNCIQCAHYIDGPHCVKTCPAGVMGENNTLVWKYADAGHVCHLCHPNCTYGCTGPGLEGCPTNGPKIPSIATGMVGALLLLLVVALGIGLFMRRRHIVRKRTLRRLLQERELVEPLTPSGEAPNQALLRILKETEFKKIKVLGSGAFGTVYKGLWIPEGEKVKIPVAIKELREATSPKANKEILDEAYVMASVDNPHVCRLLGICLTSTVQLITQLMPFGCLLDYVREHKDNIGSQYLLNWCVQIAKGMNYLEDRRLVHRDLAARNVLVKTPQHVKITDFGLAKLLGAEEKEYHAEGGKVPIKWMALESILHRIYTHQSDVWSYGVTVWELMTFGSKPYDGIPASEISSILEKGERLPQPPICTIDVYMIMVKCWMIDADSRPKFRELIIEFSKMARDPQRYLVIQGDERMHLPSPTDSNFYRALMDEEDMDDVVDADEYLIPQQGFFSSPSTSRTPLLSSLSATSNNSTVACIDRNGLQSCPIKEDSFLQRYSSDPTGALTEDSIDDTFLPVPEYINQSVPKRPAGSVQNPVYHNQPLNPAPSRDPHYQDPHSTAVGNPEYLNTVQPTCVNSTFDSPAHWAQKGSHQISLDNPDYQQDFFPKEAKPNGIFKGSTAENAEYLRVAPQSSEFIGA
Experiment: Inhibition of a panel of kinases, in vitro HotSpot kinase assay: EGFR
Type: biochemical
pIC50: −log10 of the molar value.

I have this compound here, CN(C/C=C/C(=O)N1CC[C@@H](Nc2n[nH]c3nccc(Oc4ccc(C(=O)Nc5cc(C#N)ccn5)cc4)c23)C1)C1CC1 [compound 62] , and I need its recorded pIC50.
5.00 to 6.00

I have this compound here, CN(C)C/C=C/C(=O)N1CC[C@@H](Oc2n[nH]c3nccc(Nc4ccc(Oc5ccccc5)cc4)c23)C1 [compound 14] , and I need its recorded pIC50.
> 7.00

I have this compound here, Cc1csc(NC(=O)c2ccc(Oc3ccnc4[nH]nc(N[C@@H]5CCCN(C(=O)/C=C/CN(C)C6CC6)C5)c34)cc2)n1 [compound 139] , and I need its recorded pIC50.
5.00 to 6.00
